- System: SW480
- method: Cytotoxicity against human SW480 cells after 48 hrs by MTT assay
- Type: functional, cell-based
- condition.details: SW480, 48 h
pIC50: −log10 of the molar value.
compounds and their reported pIC50
recorded.endpoint: pIC50

- compound: "CCc1n(Cc2c(-c3ccccc3)oc3ccccc23)cc[n+]1CC(=O)c1ccc(O)cc1"
  value.relation.sign: "<"
  measured.value: 4.40
- compound: "Brc1ccccc1C[n+]1cn(Cc2c(-c3ccccc3)oc3ccccc23)c2ccccc21"
  value.relation.sign: "="
  measured.value: 5.25
- compound: "O=C(C[n+]1cn(Cc2c(-c3ccccc3)oc3ccccc23)c2ccccc21)c1ccccc1"
  value.relation.sign: "="
  measured.value: 5.46
- compound: "O=C(C[n+]1cnn(Cc2c(-c3ccccc3)oc3ccccc23)c1)c1ccc(Br)cc1"
  value.relation.sign: "="
  measured.value: 4.83
- compound: "O=C(C[n+]1ccn(Cc2c(-c3ccccc3)oc3ccccc23)c1)c1ccc(O)cc1"
  value.relation.sign: "<"
  measured.value: 4.40
- compound: "O=C(C[n+]1ccn(Cc2c(-c3ccccc3)oc3ccccc23)c1)c1ccc2ccccc2c1"
  value.relation.sign: "="
  measured.value: 5.46
- compound: "COc1ccc(C(=O)C[n+]2ccn(Cc3c(-c4ccccc4)oc4ccccc34)c2)cc1"
  value.relation.sign: "="
  measured.value: 4.92
- compound: "O=C(C[n+]1ccn(Cc2c(-c3ccccc3)oc3ccccc23)c1)c1ccccc1"
  value.relation.sign: "="
  measured.value: 4.81
- compound: "COc1ccc(C(=O)C[n+]2cnn(Cc3c(-c4ccccc4)oc4ccccc34)c2)cc1"
  value.relation.sign: "="
  measured.value: 4.76
- compound: "O=C(C[n+]1cn(Cc2c(-c3ccccc3)oc3ccccc23)c2ccccc21)c1ccc(F)cc1"
  value.relation.sign: "="
  measured.value: 5.48
- compound: "CCc1n(Cc2c(-c3ccccc3)oc3ccccc23)cc[n+]1CC(=O)c1ccccc1"
  value.relation.sign: "="
  measured.value: 4.92
- compound: "O=C(c1ccccc1)C(c1ccccc1)[n+]1cnn(Cc2c(-c3ccccc3)oc3ccccc23)c1 (stereo unspecified)"
  value.relation.sign: "="
  measured.value: 4.68
- compound: "c1ccc(-c2oc3ccccc3c2Cn2cncn2)cc1"
  value.relation.sign: "<"
  measured.value: 4.40
- compound: "Brc1ccccc1C[n+]1ccn(Cc2c(-c3ccccc3)oc3ccccc23)c1"
  value.relation.sign: "="
  measured.value: 4.99
- compound: "COc1ccc(C(=O)C[n+]2cn(Cc3c(-c4ccccc4)oc4ccccc34)c3ccccc32)cc1"
  value.relation.sign: "<"
  measured.value: 4.40
- compound: "c1ccc(C[n+]2cnn(Cc3c(-c4ccccc4)oc4ccccc34)c2)cc1"
  value.relation.sign: "<"
  measured.value: 4.40

====

- System: SMMC-7721
- method: Cytotoxicity against human SMMC7721 cells after 48 hrs by MTT assay
- Format: functional, cell-based
- condition.details: SMMC-7721, 48 h

- compound.smiles: "CCc1n(Cc2c(-c3ccccc3)oc3ccccc23)cc[n+]1CC(=O)c1ccc(OC)cc1"
  value.relation.sign: "="
  IC50 [µM]: 11.8
- compound.smiles: "O=C(C[n+]1cn(Cc2c(-c3ccccc3)oc3ccccc23)c2ccccc21)c1ccc(Br)cc1"
  value.relation.sign: "="
  IC50 [µM]: 2.94
- compound.smiles: "COc1ccc(C(=O)C[n+]2cn(Cc3c(-c4ccccc4)oc4ccccc34)c3ccccc32)cc1"
  value.relation.sign: "="
  IC50 [µM]: 16.6
- compound.smiles: "Brc1ccccc1C[n+]1ccn(Cc2c(-c3ccccc3)oc3ccccc23)c1"
  value.relation.sign: "="
  IC50 [µM]: 6.61
- compound.smiles: "O=C(C[n+]1cn(Cc2c(-c3ccccc3)oc3ccccc23)c2ccccc21)c1ccccc1"
  value.relation.sign: "="
  IC50 [µM]: 8.46
- compound.smiles: "COc1ccc(C(=O)C[n+]2cnn(Cc3c(-c4ccccc4)oc4ccccc34)c2)cc1"
  value.relation.sign: "="
  IC50 [µM]: 5.76
- compound.smiles: "O=C(C[n+]1ccn(Cc2c(-c3ccccc3)oc3ccccc23)c1)c1ccc(O)cc1"
  value.relation.sign: ">"
  IC50 [µM]: 40
- compound.smiles: "O=C(C[n+]1ccn(Cc2c(-c3ccccc3)oc3ccccc23)c1)c1ccccc1"
  value.relation.sign: "="
  IC50 [µM]: 9.83
- compound.smiles: "Brc1ccccc1C[n+]1cnn(Cc2c(-c3ccccc3)oc3ccccc23)c1"
  value.relation.sign: "="
  IC50 [µM]: 21.9

Ref: ChEMBL document CHEMBL2406955
